This collection of values is drawn from patent US9073974B2.

target_desc: αvβ3 integrin (Homo sapiens, UniProt P05106+P06756)
Sequence (P06756 31-889 limits assumed): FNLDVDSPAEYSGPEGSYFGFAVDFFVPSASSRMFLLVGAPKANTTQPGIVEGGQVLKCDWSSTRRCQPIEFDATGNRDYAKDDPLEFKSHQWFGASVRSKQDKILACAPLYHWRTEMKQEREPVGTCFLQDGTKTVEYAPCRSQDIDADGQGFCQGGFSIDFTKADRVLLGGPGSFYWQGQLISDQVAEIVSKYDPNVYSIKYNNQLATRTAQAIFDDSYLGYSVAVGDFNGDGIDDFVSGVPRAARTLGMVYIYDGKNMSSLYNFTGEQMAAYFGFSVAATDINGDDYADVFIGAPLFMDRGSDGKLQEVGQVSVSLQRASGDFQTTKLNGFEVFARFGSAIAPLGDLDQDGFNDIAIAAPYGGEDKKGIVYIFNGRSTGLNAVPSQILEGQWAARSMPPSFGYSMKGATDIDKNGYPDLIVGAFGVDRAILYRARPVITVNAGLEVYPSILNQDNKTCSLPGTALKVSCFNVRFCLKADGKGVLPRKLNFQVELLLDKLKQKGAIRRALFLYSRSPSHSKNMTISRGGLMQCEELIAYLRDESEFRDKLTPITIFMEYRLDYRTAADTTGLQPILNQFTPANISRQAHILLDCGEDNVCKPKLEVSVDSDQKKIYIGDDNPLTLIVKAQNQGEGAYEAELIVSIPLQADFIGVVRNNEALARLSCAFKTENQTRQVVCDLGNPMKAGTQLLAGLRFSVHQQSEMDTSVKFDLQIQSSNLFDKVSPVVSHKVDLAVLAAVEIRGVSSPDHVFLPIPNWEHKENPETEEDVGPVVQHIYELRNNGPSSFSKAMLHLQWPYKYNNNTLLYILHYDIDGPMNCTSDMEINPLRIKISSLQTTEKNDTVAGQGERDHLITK
Sequence (P06756 891-1048 partner limits assumed): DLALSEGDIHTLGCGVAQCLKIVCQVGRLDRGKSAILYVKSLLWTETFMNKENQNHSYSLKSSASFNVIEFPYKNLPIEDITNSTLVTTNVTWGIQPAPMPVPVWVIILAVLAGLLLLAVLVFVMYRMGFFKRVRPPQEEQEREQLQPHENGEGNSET
Sequence (P05106 27-788): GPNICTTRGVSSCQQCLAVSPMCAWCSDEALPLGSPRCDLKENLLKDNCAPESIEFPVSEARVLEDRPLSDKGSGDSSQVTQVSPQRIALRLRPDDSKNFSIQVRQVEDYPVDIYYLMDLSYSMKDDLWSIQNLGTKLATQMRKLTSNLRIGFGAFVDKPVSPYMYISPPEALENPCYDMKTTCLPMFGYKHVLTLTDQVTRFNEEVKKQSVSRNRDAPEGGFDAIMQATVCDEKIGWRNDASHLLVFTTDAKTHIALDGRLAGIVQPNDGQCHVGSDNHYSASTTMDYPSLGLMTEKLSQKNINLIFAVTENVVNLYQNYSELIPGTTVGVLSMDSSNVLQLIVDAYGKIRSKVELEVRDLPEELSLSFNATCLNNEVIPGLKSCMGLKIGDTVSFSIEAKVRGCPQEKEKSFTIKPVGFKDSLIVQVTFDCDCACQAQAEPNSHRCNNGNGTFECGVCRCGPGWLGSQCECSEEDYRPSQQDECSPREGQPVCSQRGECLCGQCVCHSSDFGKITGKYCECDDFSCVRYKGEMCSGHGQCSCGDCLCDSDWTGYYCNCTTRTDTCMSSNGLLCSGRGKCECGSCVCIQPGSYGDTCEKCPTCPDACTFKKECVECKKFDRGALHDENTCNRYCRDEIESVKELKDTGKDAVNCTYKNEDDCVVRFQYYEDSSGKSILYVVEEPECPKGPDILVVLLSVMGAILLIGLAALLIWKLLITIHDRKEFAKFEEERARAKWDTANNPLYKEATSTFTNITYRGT
assay_name: Inhibition of biotinylated LXW7 binding to αvβ3-K562 cells (flow cytometry)
Set-up: expressed in transfected cells; host or cells: K562 (gift of Dr. Yoshikazu Takada, UC Davis)
condition_label: LXW9-92: inhibiting the binding of biotinylated LXW7 against αvβ3-K562 cells; class symbols
pIC50: −log10 of the molar value. Numbered stars: 1 amine (or outer) side, 2 acyl side, 3 side chain; on linkers, the order of the positions; unused ones are H or OH. Bridge positions count the residues as written; N and C are the ends. Square brackets hold non-standard residues; d marks the D form. Peptide text beside a SMILES is read from it. * marks the point of attachment. NH(CH2CH2O)2CH2CH2NH2 = NCCOCCOCCN*; Suc = O=C(CCC(=O)[*:2])[*:1]; Sar = CNCC(=O)O
Measured pIC50 of individual entries

// worked examples, pIC50 included
- CC(C)[C@@]1(C)NC(=O)[C@@H](CC(=O)O)NC(=O)[C@H](CC(=O)O)NC(=O)CNC(=O)[C@H](CCCNC(=N)N)NC(=O)CNC(=O)[C@H](N)CSSC[C@H](C(N)=O)NC1=O [LXW23, cGRGDd-D(CaMe)Val-c]: < 5.00
- N=C(N)NCCC[C@@H]1NC(=O)CNC(=O)[C@H](N)CSSC[C@H](C(N)=O)NC(=O)[C@@H](Cc2cscn2)NC(=O)[C@@H](CC(=O)O)NC(=O)[C@H](CC(=O)O)NC(=O)CNC1=O [LXW69, cGRGDd-DTha-c]: 5.00 to 6.00
- CC(C)[C@H]1NC(=O)[C@@H](CC(=O)O)NC(=O)[C@H](CC(=O)O)NC(=O)CNC(=O)[C@H](CCCNC(=N)N)NC(=O)CN(C)C(=O)[C@H](N)CSSC[C@H](C(N)=O)NC1=O [LXW14, c-Sar-RGDdvc] (H-[dC][Sar]RGD[dD][dV][dC]-NH2; disulfide 1-8): 5.00 to 6.00

Now look at this one.
Sample CC(C)[C@H]1NC(=O)[C@@H](CC(=O)O)NC(=O)[C@H](CC(=O)O)NC(=O)CNC(=O)[C@H](CCCNC(=N)N)NC(=O)CNC(=O)[C@H](NC(=O)CCC(=O)NCCOCCOCCN)CSSC[C@H](C(N)=O)NC1=O [LXW57, (Ebes)-cGRGDdvc] ({NH(CH2CH2O)2CH2CH2NH2-Suc}-[dC]GRGD[dD][dV][dC]-NH2; disulfide 1-8) , system: αvβ3 integrin (Homo sapiens, UniProt P05106+P06756). Its pIC50 is > 6.00
